From: patent US5874461A

Each record here notes measured % vitE complementation.
- System: primary embryonic hippocampal cultures
- Test Protocol: VitE complementation (vitE depletion) test on primary neuronal cultures
- Type: cell-based, rats
- Run Conditions: 10^-7 M
Form entry: value (%) — number only.

Molecule | Target Of Assay | % vitE complementation, %
Oc1ccc2c(c1)CCC(C(O)CNCC(O)C1CCc3ccccc3O1)O2 (stereo not shown) | primary embryonic hippocampal cultures | 27

Look up and state reported % vitE complementation for O[C@H](CNC[C@@H](O)[C@H]1CCc2cc(F)ccc2O1)[C@@H]1CCc2cc(F)ccc2O1 (relative stereo) [nebivolol] 29

Report measured % vitE complementation; entry is O[C@H](CNC[C@@H](O)[C@H]1CCc2cc(F)ccc2O1)[C@@H]1CCc2cc(F)ccc2O1 [Compound 1-nebivolol] 22

Specify measured % vitE complementation for O[C@@H](CNC[C@H](O)[C@H]1CCc2cc(F)ccc2O1)[C@@H]1CCc2cc(F)ccc2O1 . 12
